Hello, the source for this data is patent US8791143B2, in case you need it.

# assay-details: log P by HPLC on reversed-phase columns (EEC Directive 79/831 Annex V.A8)
# Type: physicochemical
# reported-conditions: reversed-phase C18 HPLC column, pH 2.7, HPLC reversed-phase C18, acidic range pH 2.7 (HCOOH); only or first value of the cell; read-out: log P
measured-attribute: chromatographic logP

| molecule | experimental-value |
| --- | --- |
| Cc1cc(C#N)cc(C(=O)NCc2cccc(S(F)(F)(F)(F)F)c2)c1NC(=O)c1cc(Cn2nnc(C(F)(F)F)n2)nn1-c1ncccc1Cl [Example 63] | 4.02 |
| Cc1cc(Cl)cc(C(=O)NCc2cc3ccccc3nc2Cl)c1NC(=O)c1cc(Cn2nnc(C(F)(F)F)n2)nn1-c1ncccc1Cl [Example 237] | 3.94 |
| Cc1cc(Cl)cc(C(=O)NCc2ccc(F)c(F)c2F)c1NC(=O)c1cc(Cn2nnc(C(F)(F)F)n2)nn1-c1ncccc1Cl [Example 108] | 4.01 |
| O=C(NCc1ccc(Cl)cc1)c1cc(Cl)cc(F)c1NC(=O)c1cc(Cn2nnc(C(F)(F)F)n2)nn1-c1ncccc1Cl [Example 206] | 3.9 |
| Cc1cc(C#N)cc(C(=O)NC2(c3cccc(C(F)(F)F)c3)CC2)c1NC(=O)c1cc(Cn2nnc(C(F)(F)F)n2)nn1-c1ncccc1Cl [Example 65] | 3.97 |
| Cc1cc(Cl)cc(C(=O)NC(C)c2cc(Cl)cc(Cl)c2)c1NC(=O)c1cc(Cn2nnc(C(F)(F)F)n2)nn1-c1ncccc1Cl (centres unmarked) [Example 145] | 4.66 |
| Cc1cc(C#N)cc(C(=O)NCc2cccc(OC(F)(F)F)c2)c1NC(=O)c1cc(Cn2nnc(C(F)(F)F)n2)nn1-c1c(Cl)cccc1Cl [Example 214] | 4.23 |
| COC(=O)c1ccc(CNC(=O)c2cc(Cl)cc(C)c2NC(=O)c2cc(Cn3nnc(C(F)(F)F)n3)nn2-c2ncccc2Cl)cc1 [Example 127] | 3.68 |

###

# assay-details: log P by HPLC on reversed-phase columns (EEC Directive 79/831 Annex V.A8)
# Type: physicochemical
# reported-conditions: reversed-phase C18 HPLC column, pH 2.7, HPLC reversed-phase C18, acidic range pH 2.7 (HCOOH); only or first value of the cell; read-out: log P
measured-attribute: chromatographic logP

| compound | chromatographic logP |
| --- | --- |
| Cc1ccc(Cl)c(C(=O)NCc2cccc(OC(F)(F)F)c2)c1NC(=O)c1cc(Cn2nnc(C(F)(F)F)n2)nn1-c1ncccc1Cl | 3.94 |
| Cc1cc(C#N)cc(C(=O)NC(C)c2ccc(Cl)cc2)c1NC(=O)c1cc(Cn2nnc(C(F)(F)F)n2)nn1-c1ncccc1Cl (stereo not drawn) | 3.91 |
| Cc1cc(C#N)cc(C(=O)NCc2ccc(Cl)c(Cl)c2)c1NC(=O)c1cc(Cn2nnc(C(F)(F)F)n2)nn1-c1ccccc1Cl | 3.99 |
| Cc1cc(C#N)cc(C(=O)NCc2cccc(OC(F)(F)F)c2)c1NC(=O)c1cc(Cn2nnc(C(F)(F)F)n2)nn1-c1ncccc1Cl | 3.91 |
| O=C(NCc1ccc(Cl)cc1)c1cc2ccccc2c(Cl)c1NC(=O)c1cc(Cn2nnc(C(F)(F)F)n2)nn1-c1ncccc1Cl | 4.11 |
| Cc1cc(F)cc(C(=O)NCc2cccc(OC(F)(F)F)c2)c1NC(=O)c1cc(Cn2nnc(C(F)(F)F)n2)nn1-c1ncccc1Cl | 3.95 |
